All values here come from ChEMBL document CHEMBL1671782.

assay: in vitro; settings: human, erythrocytes
Description: Toxicity in human erythrocytes assessed as hemolytic activity measured after 10 mins shaking
Peptide text beside a SMILES is read from it. * marks the point of attachment. Lauroyl = CCCCCCCCCCCC(=O)*
measured.attribute: HC50 at 10 min (µM)

>  <compound>
CCCCCCCCCCCC(=O)NCCCC[C@H](N)C(=O)NCCCCCCNC(=O)[C@@H](N)CCCCNC(=O)CCCCCCCCCCC

>  <value.unit>
µM

>  <reading>
116

$$$$

(a) CCCCCCCCCCCC(=O)NCCCC[C@H](N)C(=O)OC
(b) CCCCCCCCCCCC(=O)NCCCC[C@@H](C(=O)NCCCCCCNC(=O)[C@H](CCCCNC(=O)CCCCCCCCCCC)[N+](C)(C)C)[N+](C)(C)C
(c) CCCCCCCCCCCC(=O)N[C@@H](CCCNC(=N)N)C(=O)N[C@@H](CCCCN)C(=O)OC (Lauroyl-Arg-Lys-OMe)
Let's sort these by HC50 at 10 min, smallest first. Go ahead? Reply with the item labels sorted in the order that was asked for.
b, a, c

====

assay: in vitro; conditions: human, erythrocytes
measured.attribute: HC50 at 10 min (µM)

Reference set (2 entries):
>  <structure.smiles.string>
CCCCCCCCCCCC(=O)N[C@@H](CCCCN)C(=O)NCCCCCCNC(=O)[C@H](CCCCN)NC(=O)CCCCCCCCCCC

>  <HC50 at 10 min, µM>
475

$$$$
>  <structure.smiles.string>
CCCCCCCCCCCC(=O)NCCCC[C@H](N)C(=O)NCCCCNCCCNC(=O)[C@@H](N)CCCCNC(=O)CCCCCCCCCCC

>  <HC50 at 10 min, µM>
12

$$$$

(A) CCCCCCCCCCCC(=O)N[C@@H](CCCNC(=N)N)C(=O)NCCCC[C@H](N)C(=O)OC
(B) CCCCCCCCCCCC(=O)N[C@@H](CCCCN)C(=O)OC
Between A and B , whose measured HC50 at 10 min reads higher? Give the label under which the chosen entry appears.
A
(A: 791 µM, B: 199 µM)
